Origin of values: patent US11744824B2

Overview of reported pIC50 across a group of compounds:
biological target: GST-tagged recombinant human RIP2 (Homo sapiens (Human)); test: RIP2 Kinase Assay (ADP-Glo); settings: in vitro kinase activity, ATP 25 μM
pIC50: −log10 of the molar value.

Please review the following examples before continuing.
Nc1nc2ccc(-c3ccccc3CCCO)cn2c1C(=O)[C@@H]1C[C@@H]1F    6.30 to 7.00
Cc1c(-c2ccc3nc(N)c(C(=O)[C@@H]4C[C@@H]4F)n3c2)cnc2[nH]ccc12    7.00 to 9.00
Cc1cccc(-c2ccc3nc(N)c(C(=O)[C@@H]4C[C@@H]4F)n3c2)c1C    7.00 to 9.00
Cc1cccc(N)c1-c1ccc2nc(N)c(C(=O)[C@@H]3C[C@@H]3F)n2c1    < 6.00
Nc1nc2ccc(-c3ccccc3CCCF)cn2c1C(=O)[C@@H]1C[C@@H]1F    6.30 to 7.00
CNc1cc(F)cc(-c2ccc3nc(N)c(C(=O)[C@@H]4C[C@@H]4F)n3c2)c1C    6.30 to 7.00
Cc1c(F)cccc1-c1ccc2nc(NC(=O)OC(C)(C)C)c(C(=O)[C@@H]3C[C@@H]3F)n2c1    < 6.00
Cc1cc(-c2ccc3nc(N)c(C(=O)[C@@H]4C[C@@H]4F)n3c2)sn1    6.30 to 7.00
Cc1c(-c2ccc3nc(N)c(C(=O)[C@H]4C[C@H]4F)n3c2)ccc2[nH]ccc12    7.00 to 9.00
Nc1nc2ccc(-c3ccc4[nH]ccc4c3)cn2c1C(=O)[C@@H]1C[C@H]1F    7.00 to 9.00

# input Provide pIC50 value for the following compound: CO/C=C/c1c(F)cccc1-c1ccc2nc(N)c(C(=O)[C@@H]3C[C@@H]3F)n2c1
# output 6.30 to 7.00

# input Provide pIC50 value for the following compound: Cc1c(F)cccc1-c1ccc2nc(N)c(C(=O)N[C@@H]3C[C@@H]3F)n2c1
# output 6.30 to 7.00

# input Provide pIC50 value for the following compound: Cc1c(F)cccc1-c1ccc2nc(N3CCCC3)c(C(=O)[C@@H]3C[C@@H]3F)n2c1
# output < 6.00

# input Provide pIC50 value for the following compound: Cc1cc(F)ccc1-c1ccc2nc(N)c(C(=O)[C@H]3C[C@@H]3F)n2c1
# output 6.30 to 7.00

# input Provide pIC50 value for the following compound: Cc1c(F)cccc1-c1ccc2nc(N)c(C(=O)C(C)(C)C)n2c1
# output 6.30 to 7.00

# input Provide pIC50 value for the following compound: CSc1c(F)c(Cl)c(-c2ccc3nc(N)c(C(=O)[C@@H]4C[C@@H]4F)n3c2)c2cn[nH]c12
# output 6.30 to 7.00

# input Provide pIC50 value for the following compound: Nc1nc2ccc(-c3cnc4ccccc4c3)cn2c1C(=O)[C@@H]1C[C@@H]1F
# output 6.30 to 7.00

---

molecular target: GST-tagged recombinant human RIP2 (Homo sapiens (Human)); assay: RIP2 Kinase Assay (ADP-Glo); details: in vitro kinase activity, ATP 25 μM
pIC50: −log10 of the molar value.
Overview of reported pIC50 across a group of molecules:

CN1CCN(c2cccc(-c3ccc4nc(N)c(C(=O)[C@@H]5C[C@@H]5F)n4c3)c2)CC1 [Example 56]    6.30 to 7.00

# input Provide pIC50 value for the following molecule: Cc1c(F)cccc1-c1ccc2nc(N)c(C(=O)c3ccncn3)n2c1 [Example 77]
# output 6.30 to 7.00

# input Provide pIC50 value for the following molecule: Cc1c(-c2ccc3nc(N)c(C(=O)[C@@H]4C[C@@H]4F)n3c2)ccc(F)c1F [Example 31]
# output 6.30 to 7.00

---

biological target: GST-tagged recombinant human RIP2 (Homo sapiens (Human), UniProt O43353); test: RIP2 Kinase Assay (ADP-Glo); conditions: in vitro kinase activity, ATP 25 μM
Sequence (O43353 whole entry): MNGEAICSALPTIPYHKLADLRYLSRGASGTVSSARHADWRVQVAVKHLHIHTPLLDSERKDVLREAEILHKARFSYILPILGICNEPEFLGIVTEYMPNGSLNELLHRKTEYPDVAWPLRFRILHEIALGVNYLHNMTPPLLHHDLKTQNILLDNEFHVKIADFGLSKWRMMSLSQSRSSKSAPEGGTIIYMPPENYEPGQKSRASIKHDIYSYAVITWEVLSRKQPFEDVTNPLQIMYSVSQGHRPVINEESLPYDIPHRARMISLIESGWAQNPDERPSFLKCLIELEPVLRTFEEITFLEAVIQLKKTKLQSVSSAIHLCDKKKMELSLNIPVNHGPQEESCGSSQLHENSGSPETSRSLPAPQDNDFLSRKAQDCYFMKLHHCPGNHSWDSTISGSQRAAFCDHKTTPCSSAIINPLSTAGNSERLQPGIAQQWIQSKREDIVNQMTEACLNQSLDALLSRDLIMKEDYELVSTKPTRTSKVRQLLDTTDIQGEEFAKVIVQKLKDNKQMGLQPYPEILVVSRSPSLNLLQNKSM
Overview of reported IC50 across a group of compounds:

# input Fill in: IC50 on GST-tagged recombinant human RIP2 (Homo sapiens (Human), UniProt O43353), entry Cc1c(F)cccc1-c1ccc2nc(NCCN(C)C)c(C(=O)[C@@H]3C[C@@H]3F)n2c1 [Example 24]
# output > 1000 nM

# input Fill in: IC50 on GST-tagged recombinant human RIP2 (Homo sapiens (Human), UniProt O43353), entry Nc1nc2ccc(-c3ccnc4[nH]ccc34)cn2c1C(=O)[C@@H]1C[C@@H]1F [Example 104]
# output 1 to 100 nM

# input Fill in: IC50 on GST-tagged recombinant human RIP2 (Homo sapiens (Human), UniProt O43353), entry Cc1cccc(F)c1-c1ccc2nc(N)c(C(=O)[C@H]3C[C@@H]3F)n2c1 [Example 26]
# output 101 to 500 nM

# input Fill in: IC50 on GST-tagged recombinant human RIP2 (Homo sapiens (Human), UniProt O43353), entry Cc1c(F)cccc1-c1ccc2nc(N)c(C(=O)c3cnn(C)c3)n2c1 [Example 21]
# output 101 to 500 nM

# input Fill in: IC50 on GST-tagged recombinant human RIP2 (Homo sapiens (Human), UniProt O43353), entry Cc1c(F)cccc1-c1ccc2nc(N)c(C(=O)[C@@H]3CC3(F)F)n2c1 [Example 47]
# output 101 to 500 nM

# input Fill in: IC50 on GST-tagged recombinant human RIP2 (Homo sapiens (Human), UniProt O43353), entry Cc1scnc1-c1ccc2nc(N)c(C(=O)[C@@H]3C[C@@H]3F)n2c1 [Example 28]
# output 101 to 500 nM

# input Fill in: IC50 on GST-tagged recombinant human RIP2 (Homo sapiens (Human), UniProt O43353), entry Nc1nc2ccc(-c3cnc4[nH]ccc4c3Cl)cn2c1C(=O)C1CCNC1 (centres unmarked) [Example 95]
# output 1 to 100 nM

# input Fill in: IC50 on GST-tagged recombinant human RIP2 (Homo sapiens (Human), UniProt O43353), entry Nc1nc2c(F)cc(-c3cccc4[nH]ccc34)cn2c1C(=O)[C@@H]1C[C@@H]1F [Example 96]
# output 101 to 500 nM

---

Overview of reported IC50 across a group of compounds:
molecular target: GST-tagged recombinant human RIP2 (Homo sapiens (Human), UniProt O43353); assay: RIP2 Kinase Assay (ADP-Glo); conditions: in vitro kinase activity, ATP 25 μM

Nc1nc2ccc(-c3ccc4occc4c3)cn2c1C(=O)[C@@H]1C[C@@H]1F    1 to 100 nM

# input Provide IC50 value for the following compound: Nc1nc2ccc(-c3ccccc3OCCF)cn2c1C(=O)[C@@H]1C[C@@H]1F
# output 101 to 500 nM

# input Provide IC50 value for the following compound: Cc1ccc(N)cc1-c1ccc2nc(N)c(C(=O)[C@@H]3C[C@@H]3F)n2c1
# output 1 to 100 nM

# input Provide IC50 value for the following compound: Nc1nc2ccc(-c3cc[nH]c3)cn2c1C(=O)[C@@H]1C[C@@H]1F
# output > 1000 nM

# input Provide IC50 value for the following compound: Cc1c(-c2ccc3nc(N)c(C(=O)c4ccccn4)n3c2)cnc2[nH]ccc12
# output 1 to 100 nM

# input Provide IC50 value for the following compound: Nc1nc2ccc(-c3ccccc3CCF)cn2c1C(=O)[C@@H]1C[C@@H]1F
# output 101 to 500 nM

# input Provide IC50 value for the following compound: CC(C)(C)OC(=O)n1cc(-c2ccc3nc(N)c(C(=O)[C@@H]4C[C@@H]4F)n3c2)c2ccccc21
# output > 1000 nM

# input Provide IC50 value for the following compound: Nc1nc2ccc(-c3c[nH]c4ccccc34)cn2c1C(=O)[C@@H]1C[C@@H]1F
# output 1 to 100 nM

---

biological target: GST-tagged recombinant human RIP2 (Homo sapiens (Human)); assay: RIP2 Kinase Assay (ADP-Glo); conditions: in vitro kinase activity, ATP 25 μM
pIC50: −log10 of the molar value.
Overview of reported pIC50 across a group of compounds:

Nc1nc2ccc(-c3ccnc4ccccc34)cn2c1C(=O)[C@@H]1C[C@@H]1F [Example 115]    7.00 to 9.00
Cc1c(F)cccc1-c1ccc2nc(N)c(C(=O)c3ccccn3)n2c1 [Example 12]    7.00 to 9.00
Nc1nc2ccc(-c3cccc(F)c3CCO)cn2c1C(=O)[C@@H]1C[C@@H]1F [Example 126]    < 6.00
Cc1c(F)cc(N)cc1-c1ccc2nc(N)c(C(=O)[C@@H]3C[C@@H]3F)n2c1 [Example 155]    7.00 to 9.00
Nc1nc2ccc(-c3ccc(N4CCOCC4)cc3)cn2c1C(=O)[C@@H]1C[C@@H]1F [Example 39]    < 6.00
Cc1c(-c2ccc3nc(N)c(C(=O)C4CNC4)n3c2)cnc2[nH]ccc12 [Example 82]    7.00 to 9.00
Cc1cccc(F)c1-c1ccc2nc(N)c(C(=O)[C@@H]3C[C@@H]3F)n2c1 [Example 18]    6.30 to 7.00

Could you now consider this next compound?
# input Provide pIC50 value for the following compound: Cc1c(F)cccc1-c1ccc2nc(N)c(C(=O)C3CCN3C(=O)OC(C)(C)C)n2c1 (centres unmarked) [Example 36]
# output < 6.00
